Organism: Rattus norvegicus
Experiment: Open TG-GATES - Regimen: Daily Repeat
Assay type: toxicity, organism-based, Sprague-Dawley
Design: regimen Daily Repeat, gender Male, age 6 weeks
Conditions: in vivo, po, 300 mg/kg, […], tissue Plasma, route gavage, dose level Middle, time 14 day

{"columns": ["Compound", "TC, mg/dL"],
 "data": [
  ["CN/C(=N/CCSCc1nc[nH]c1C)NC#N [CIMETIDINE]", 77.6],
  ["CNC(=C[N+](=O)[O-])NCCSCc1ccc(CN(C)C)o1 [RANITIDINE]", 68.6],
  ["CCOc1ccc(NC(C)=O)cc1 [PHENACETIN]", 78.4],
  ["O=C(OC[C@H]1O[C@@H](OC(=O)c2cc(O)c(O)c(OC(=O)c3cc(O)c(O)c(O)c3)c2)[C@H](OC(=O)c2cc(O)c(O)c(OC(=O)c3cc(O)c(O)c(O)c3)c2)[C@@H](OC(=O)c2cc(O)c(O)c(OC(=O)c3cc(O)c(O)c(O)c3)c2)[C@@H]1OC(=O)c1cc(O)c(O)c(OC(=O)c2cc(O)c(O)c(O)c2)c1)c1cc(O)c(O)c(OC(=O)c2cc(O)c(O)c(O)c2)c1 [TANNIC ACID]", 79.6],
  ["Cc1nnc2n1-c1ccc(Cl)cc1C(c1ccccc1Cl)=NC2 [TRIAZOLAM]", 67.2],
  ["COC(=O)C1=C(C)NC(C)=C(C(=O)OC)C1c1ccccc1[N+](=O)[O-] [NIFEDIPINE]", 79.6]
]}

====

Species: Rattus norvegicus
Assay: Open TG-GATES - Regimen: Daily Repeat
Type: toxicity, organism-based, Sprague-Dawley
Parameters: regimen Daily Repeat, gender Male, age 6 weeks
Settings: in vivo, po, 1000 mg/kg, 72 h, tissue Plasma, route gavage, dose level High, time 3 day

{"columns": ["Molecule", "Unit Info", "TP"],
 "data": [
  ["Cc1nnc2n1-c1ccc(Cl)cc1C(c1ccccc1Cl)=NC2 [TRIAZOLAM]", "g/dL", 5.6],
  ["CCOc1ccc(NC(C)=O)cc1 [PHENACETIN]", "g/dL", 5.9],
  ["CNC(=C[N+](=O)[O-])NCCSCc1ccc(CN(C)C)o1 [RANITIDINE]", "g/dL", 5.6],
  ["O=C(OC[C@H]1O[C@@H](OC(=O)c2cc(O)c(O)c(OC(=O)c3cc(O)c(O)c(O)c3)c2)[C@H](OC(=O)c2cc(O)c(O)c(OC(=O)c3cc(O)c(O)c(O)c3)c2)[C@@H](OC(=O)c2cc(O)c(O)c(OC(=O)c3cc(O)c(O)c(O)c3)c2)[C@@H]1OC(=O)c1cc(O)c(O)c(OC(=O)c2cc(O)c(O)c(O)c2)c1)c1cc(O)c(O)c(OC(=O)c2cc(O)c(O)c(O)c2)c1 [TANNIC ACID]", "g/dL", 5.5],
  ["COC(=O)C1=C(C)NC(C)=C(C(=O)OC)C1c1ccccc1[N+](=O)[O-] [NIFEDIPINE]", "g/dL", 5.3],
  ["CN/C(=N/CCSCc1nc[nH]c1C)NC#N [CIMETIDINE]", "g/dL", 5.5]
]}

====

Organism: Rattus norvegicus
Assay: Open TG-GATES - Regimen: Daily Repeat
Format: toxicity, organism-based, Sprague-Dawley
Design: regimen Daily Repeat, gender Male, age 6 weeks
Conditions: in vivo, po, 1000 mg/kg, 72 h, tissue Blood, route gavage, dose level High, time 3 day

{"columns": ["Chemical Structure", "MCV, fL"],
 "data": [
  ["O=C(OC[C@H]1O[C@@H](OC(=O)c2cc(O)c(O)c(OC(=O)c3cc(O)c(O)c(O)c3)c2)[C@H](OC(=O)c2cc(O)c(O)c(OC(=O)c3cc(O)c(O)c(O)c3)c2)[C@@H](OC(=O)c2cc(O)c(O)c(OC(=O)c3cc(O)c(O)c(O)c3)c2)[C@@H]1OC(=O)c1cc(O)c(O)c(OC(=O)c2cc(O)c(O)c(O)c2)c1)c1cc(O)c(O)c(OC(=O)c2cc(O)c(O)c(O)c2)c1", 63.8],
  ["Cc1nnc2n1-c1ccc(Cl)cc1C(c1ccccc1Cl)=NC2", 63.4],
  ["CNC(=C[N+](=O)[O-])NCCSCc1ccc(CN(C)C)o1", 63.1],
  ["CN/C(=N/CCSCc1nc[nH]c1C)NC#N", 62.3],
  ["CCOc1ccc(NC(C)=O)cc1", 58.8],
  ["COC(=O)C1=C(C)NC(C)=C(C(=O)OC)C1c1ccccc1[N+](=O)[O-]", 61.8]
]}

====

Organism: Rattus norvegicus
Assay: Open TG-GATES - Regimen: Single
Type: toxicity, organism-based, Sprague-Dawley
Set-up: regimen Single, gender Male, age 6 weeks
Conditions: in vivo, po, 1000 mg/kg, 9 h, tissue Blood, route gavage, dose level High
Assay Metric: Ret (%)

{"columns": ["Chemical Structure", "Value"],
 "data": [
  ["O=C(OC[C@H]1O[C@@H](OC(=O)c2cc(O)c(O)c(OC(=O)c3cc(O)c(O)c(O)c3)c2)[C@H](OC(=O)c2cc(O)c(O)c(OC(=O)c3cc(O)c(O)c(O)c3)c2)[C@@H](OC(=O)c2cc(O)c(O)c(OC(=O)c3cc(O)c(O)c(O)c3)c2)[C@@H]1OC(=O)c1cc(O)c(O)c(OC(=O)c2cc(O)c(O)c(O)c2)c1)c1cc(O)c(O)c(OC(=O)c2cc(O)c(O)c(O)c2)c1", 9.2],
  ["Cc1nnc2n1-c1ccc(Cl)cc1C(c1ccccc1Cl)=NC2", 9.5],
  ["COC(=O)C1=C(C)NC(C)=C(C(=O)OC)C1c1ccccc1[N+](=O)[O-]", 9.7],
  ["CNC(=C[N+](=O)[O-])NCCSCc1ccc(CN(C)C)o1", 7.3],
  ["CN/C(=N/CCSCc1nc[nH]c1C)NC#N", 7.9]
]}

====

The entries below come with measured MCH values attached.
Species: Rattus norvegicus
Assay: Open TG-GATES - Regimen: Daily Repeat
Format: toxicity, organism-based, Sprague-Dawley
Design: regimen Daily Repeat, gender Male, age 6 weeks
Conditions: in vivo, po, 100 mg/kg, 72 h, tissue Blood, route gavage, dose level Low, time 3 day

{"columns": ["Chemical Structure", "MCH, pg"],
 "data": [
  ["Cc1nnc2n1-c1ccc(Cl)cc1C(c1ccccc1Cl)=NC2", 21.5],
  ["CCOc1ccc(NC(C)=O)cc1", 20.4],
  ["CN/C(=N/CCSCc1nc[nH]c1C)NC#N", 21.1],
  ["COC(=O)C1=C(C)NC(C)=C(C(=O)OC)C1c1ccccc1[N+](=O)[O-]", 20.7],
  ["CNC(=C[N+](=O)[O-])NCCSCc1ccc(CN(C)C)o1", 21.7],
  ["O=C(OC[C@H]1O[C@@H](OC(=O)c2cc(O)c(O)c(OC(=O)c3cc(O)c(O)c(O)c3)c2)[C@H](OC(=O)c2cc(O)c(O)c(OC(=O)c3cc(O)c(O)c(O)c3)c2)[C@@H](OC(=O)c2cc(O)c(O)c(OC(=O)c3cc(O)c(O)c(O)c3)c2)[C@@H]1OC(=O)c1cc(O)c(O)c(OC(=O)c2cc(O)c(O)c(O)c2)c1)c1cc(O)c(O)c(OC(=O)c2cc(O)c(O)c(O)c2)c1", 22.3]
]}

====

The entries below come with measured MCV values attached.
Species: Rattus norvegicus
Assay: Open TG-GATES - Regimen: Single
Format: toxicity, organism-based, Sprague-Dawley
Set-up: regimen Single, gender Male, age 6 weeks
Settings: in vivo, po, 100 mg/kg, 24 h, tissue Blood, route gavage, dose level Low

{"columns": ["Compound", "MCV"],
 "data": [
  ["CN/C(=N/CCSCc1nc[nH]c1C)NC#N [CIMETIDINE]", "63.7 fL"],
  ["COC(=O)C1=C(C)NC(C)=C(C(=O)OC)C1c1ccccc1[N+](=O)[O-] [NIFEDIPINE]", "64.5 fL"],
  ["CNC(=C[N+](=O)[O-])NCCSCc1ccc(CN(C)C)o1 [RANITIDINE]", "64.4 fL"]
]}

====

Organism: Rattus norvegicus
Assay: Open TG-GATES - Regimen: Single
Type: toxicity, organism-based, Sprague-Dawley
Design: regimen Single, gender Male, age 6 weeks
Conditions: in vivo, po, 1000 mg/kg, 3 h, tissue Plasma, route gavage, dose level High

{"columns": ["Chemical Structure", "Unit Info", "GLC"],
 "data": [
  ["Cc1nnc2n1-c1ccc(Cl)cc1C(c1ccccc1Cl)=NC2", "mg/dL", 174.6],
  ["COC(=O)C1=C(C)NC(C)=C(C(=O)OC)C1c1ccccc1[N+](=O)[O-]", "mg/dL", 260.8],
  ["CN/C(=N/CCSCc1nc[nH]c1C)NC#N", "mg/dL", 181.8]
]}

src = ChEMBL document CHEMBL3885861
